molecular target: Ubiquitin-activating enzyme e1, putative (Leishmania donovani (strain BPK282A1)) (UniProt E9BSI1); test: Leishmania donovani Ubiquitin Activating Enzyme (LdE1); format: functional; design: scale not given: direction of the effect not stated beside the values; settings: 30 µM
Results with a measured potency or affinity are listed apart.
Please provide measured Percent Effect for the entries that follow.
State just the number; it will be interpreted in %.

Task item: Request the reported Percent Effect associated with Cc1nccn1C1CCCN(C(=O)C2=NN(C)C(=O)CC2)C1 (stereo not drawn)
Reply: 18.9

Task item: Can you handle O=C(Cc1ccccn1)N1CCN(C(=O)c2cccc3[nH]ncc23)CC1 next?
Reply: 3.8

Task item: Can you handle COc1ccc(C(=O)N2CCCCC2c2nc(C)cs2)nn1 (stereo not drawn) next?
Reply: 2.6

Task item: Can you handle COC(=O)c1cc(C(=O)N2CCCCCC2)n(-c2ccccc2)n1 next?
Reply: 2.63

Task item: Can you handle O=C(c1cnc(-c2cccs2)s1)N1CCCN2CCCC2C1 (stereo not drawn) next?
Reply: 5.41

Task item: Can you handle COc1cc(C(=O)N2CCC(c3n[nH]c(C4CC4)n3)CC2)ccc1C next?
Reply: -1.27

Task item: Can you handle Cc1ccc2c(c1)c(CNC(=O)C1CC(=O)N(C3CCCC3)C1)nn2C (stereo not drawn) next?
Reply: 0

Task item: Can you handle O=C(O)c1cc2c(nc1O)CC(c1cccs1)CC2=O (stereo not drawn) next?
Reply: 17.3

Task item: Can you handle CC(C)(C)c1n[nH]c(C2CN(C(=O)c3cc(Cl)c[nH]3)CCO2)n1 (stereo not drawn) next?
Reply: 15.8

Task item: Can you handle CCn1c(C)nnc1CN(C)C1CCN(CCn2cccn2)C1 (stereo not drawn) next?
Reply: 15.6

Task item: Can you handle CC(C)CN1CCC(c2nc3c([nH]2)CC(C)(C)CNC3=O)C1 (stereo not drawn) next?
Reply: 8.11

Task item: Can you handle Cn1cc(CNC2CCCN(Cc3noc(C4CC4)n3)C2)cn1 (stereo not drawn) next?
Reply: 13.2

Task item: Can you handle c1ccc(OCC2CC3(CCN(Cc4ccncc4)CC3)CO2)nc1 (stereo not drawn) next?
Reply: 9.33

====

Please provide measured Percent Effect for the entries that follow.
target: Proteasome subunit beta (Trypanosoma cruzi) (UniProt O96673); experiment: Trypanosoma cruzi proteasome chymotrypsin-like activity (TcProtChymo) assay.; assay type: functional; design: scale not given: in the data most compounds retested in dose-response had high values; conditions: 9.37 µM
Sequence (O96673 as listed by the source): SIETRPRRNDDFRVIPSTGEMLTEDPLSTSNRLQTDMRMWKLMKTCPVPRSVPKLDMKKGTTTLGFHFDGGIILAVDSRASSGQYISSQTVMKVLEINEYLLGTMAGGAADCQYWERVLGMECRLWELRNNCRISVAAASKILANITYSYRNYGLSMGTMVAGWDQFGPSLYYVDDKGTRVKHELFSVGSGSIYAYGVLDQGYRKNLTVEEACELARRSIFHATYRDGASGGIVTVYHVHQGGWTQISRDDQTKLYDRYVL
State just the number; it will be interpreted in %.

Task item: Request the reported Percent Effect associated with Cc1noc2nc(C3CCN(Cc4cccnc4)CC3)cc(C(F)F)c12
Reply: 2.03

Task item: Can you handle CN(C)CCN1CCOCC2(C1)CN(Cc1ccsc1)CCO2 (stereo unspecified) next?
Reply: 4.67

Task item: Can you handle Cc1nc(C)n(C2CCCN(C(=O)c3ccc(NC4CC4)nc3)C2)n1 (stereo unspecified) next?
Reply: -3.77

Task item: Can you handle CCn1nnc2c1C(COC)CN(C(=O)Cc1cccs1)C2 (stereo unspecified) next?
Reply: 17.8

Task item: Can you handle CN(C)C(=O)CC1CC2(CCN(CC3CC3)CC2)c2cc(F)ccc21 (stereo unspecified) next?
Reply: 3.14

Task item: Can you handle Cn1ccc(C(=O)N2CCCC(n3cncn3)C2)cc1=O (stereo unspecified) next?
Reply: 11.9

Task item: Can you handle Cc1ccsc1CNc1cc(N2CCCC2CO)ncn1 (stereo unspecified) next?
Reply: 8.23

Task item: Can you handle CC(C)OCCOCc1cccc(NC(=O)NCc2ccccn2)c1 next?
Reply: 19.3

Task item: Can you handle CCn1nc2c(cc1=O)CN(Cc1nc(N)c3ccccc3n1)CC2 next?
Reply: 14.6

Task item: Can you handle CCc1nc(CN2CCCN(C(=O)c3cnc[nH]3)CC2)cs1 next?
Reply: 12.9

Task item: Can you handle CS(=O)(=O)NCC1CCCN(Cc2ccc(F)c3cccnc23)C1 (stereo unspecified) next?
Reply: 18.5

Task item: Can you handle COCc1nc(C(=O)N2CCCCC2Cn2cccn2)cs1 (stereo unspecified) next?
Reply: -0.761

Task item: Can you handle COc1cc(C2CC(=O)Oc3cc(C)[nH]c(=O)c32)ccc1OC(F)F (stereo unspecified) next?
Reply: 19

Task item: Can you handle COc1cc(CNC2CCc3nc(C)nn3C2)cc2c1OCCO2 (stereo unspecified) next?
Reply: 2.62

Task item: Can you handle CC(C)(O)CN1CCN(C(=O)c2cc3ccccc3c(=O)[nH]2)CC1 next?
Reply: 7.57

Task item: Can you handle O=C(NCCNCC1CNc2ccnn2C1)c1ccc(F)cc1 (stereo unspecified) next?
Reply: 11.6

Task item: Can you handle Cc1ccc(C(=O)N(C)Cc2cscn2)c(=O)[nH]1 next?
Reply: 4.31

Task item: Can you handle CCOc1ccc(Cl)c(C(=O)N2CCN(CCO)CC2)n1 next?
Reply: 4.05

Task item: Can you handle O=C(c1cnc(C2CC2)s1)N1CCCCC1Cn1cccn1 (stereo unspecified) next?
Reply: 12.9

Task item: Can you handle Cc1nc(C2CCCN2C(=O)c2cc3c(s2)CCCC3)no1 (stereo unspecified) next?
Reply: 3.51

Task item: Can you handle N#CCCN(C(=O)CN1CCCC1c1ccsc1)c1ccccc1F (stereo unspecified) next?
Reply: -0.718

Task item: Can you handle COCCNC(=O)NCc1ccc(OC(C)C)c(F)c1 next?
Reply: 5.67

Task item: Can you handle CCC(=O)N1Cc2nccn2CC(CN(C)Cc2cccnc2)C1 (stereo unspecified) next?
Reply: 7.49

Task item: Can you handle CC(=O)Nc1nc(CN2CCCCC2Cn2cccn2)cs1 (stereo unspecified) next?
Reply: 10.8

Task item: Can you handle Fc1cccc(N2CCCC3(C2)CN(c2ncccn2)CCO3)c1 (stereo unspecified) next?
Reply: 9.4

Task item: Can you handle COc1cccc(-n2c(C)cc(C(=O)O)c2C)c1 next?
Reply: 10.7

Task item: Can you handle Cc1ccc2c(ccn2CC(=O)NC[C@@H]2CCCN3CCCC[C@H]23)c1 next?
Reply: 16.3

Task item: Can you handle CSc1ccc(NS(=O)(=O)c2cnn(C)c2)cn1 next?
Reply: 0.0856

Task item: Can you handle CC(C)NC(=O)COc1nc(C(C)C)no1 next?
Reply: 4.48

Task item: Can you handle COC[C@]12COC[C@H]1CN(Cc1cc(OC)cc(OC)c1)C2 next?
Reply: 11.2

Task item: Can you handle Cc1ccc(C(=O)N2CCC(Oc3ccc(F)cc3F)CC2)c(=O)[nH]1 next?
Reply: 8.69

Task item: Can you handle Cc1nn(C)c(Cl)c1C1CCCN1C(=O)c1nccnc1N (stereo unspecified) next?
Reply: 12.4

Task item: Can you handle Clc1snnc1CN1CCCCC1Cn1cncn1 (stereo unspecified) next?
Reply: 13.2

Task item: Can you handle Cc1ccc(N2CCCC(NCc3cscn3)C2)nn1 (stereo unspecified) next?
Reply: 11.3

Task item: Can you handle CC(CNCc1ccc(Cl)c(Cl)c1)Oc1ccccn1 (stereo unspecified) next?
Reply: 20.5

Task item: Can you handle Cc1ccc(F)c(C(=O)N2CCN(S(C)(=O)=O)[C@@H](C)C2)c1 next?
Reply: 8.7

Task item: Can you handle Cc1cnc(C(=O)N2CCCC(n3ccnc3C)C2)cn1 (stereo unspecified) next?
Reply: 3.13

Task item: Can you handle O=C1CC2(CCCCC2)CC(=O)N1CC(O)COCc1ccc(Cl)cc1 (stereo unspecified) next?
Reply: -2.66

Task item: Can you handle Cc1ccc(-c2nc(CN3CCOC(c4ccccc4)C3)cs2)o1 (stereo unspecified) next?
Reply: 12.6

Task item: Can you handle Cc1noc(C)c1CCC(=O)N1CCN(CCn2cncn2)CC1 next?
Reply: 21.1

Task item: Can you handle CC(=O)c1ccc(C(=O)NCCCOC(C)c2ccccc2)s1 (stereo unspecified) next?
Reply: 13.9

====

Biological target: Ubiquitin-activating enzyme e1, putative (Leishmania donovani (strain BPK282A1)) (UniProt E9BSI1)
Sequence (whole entry): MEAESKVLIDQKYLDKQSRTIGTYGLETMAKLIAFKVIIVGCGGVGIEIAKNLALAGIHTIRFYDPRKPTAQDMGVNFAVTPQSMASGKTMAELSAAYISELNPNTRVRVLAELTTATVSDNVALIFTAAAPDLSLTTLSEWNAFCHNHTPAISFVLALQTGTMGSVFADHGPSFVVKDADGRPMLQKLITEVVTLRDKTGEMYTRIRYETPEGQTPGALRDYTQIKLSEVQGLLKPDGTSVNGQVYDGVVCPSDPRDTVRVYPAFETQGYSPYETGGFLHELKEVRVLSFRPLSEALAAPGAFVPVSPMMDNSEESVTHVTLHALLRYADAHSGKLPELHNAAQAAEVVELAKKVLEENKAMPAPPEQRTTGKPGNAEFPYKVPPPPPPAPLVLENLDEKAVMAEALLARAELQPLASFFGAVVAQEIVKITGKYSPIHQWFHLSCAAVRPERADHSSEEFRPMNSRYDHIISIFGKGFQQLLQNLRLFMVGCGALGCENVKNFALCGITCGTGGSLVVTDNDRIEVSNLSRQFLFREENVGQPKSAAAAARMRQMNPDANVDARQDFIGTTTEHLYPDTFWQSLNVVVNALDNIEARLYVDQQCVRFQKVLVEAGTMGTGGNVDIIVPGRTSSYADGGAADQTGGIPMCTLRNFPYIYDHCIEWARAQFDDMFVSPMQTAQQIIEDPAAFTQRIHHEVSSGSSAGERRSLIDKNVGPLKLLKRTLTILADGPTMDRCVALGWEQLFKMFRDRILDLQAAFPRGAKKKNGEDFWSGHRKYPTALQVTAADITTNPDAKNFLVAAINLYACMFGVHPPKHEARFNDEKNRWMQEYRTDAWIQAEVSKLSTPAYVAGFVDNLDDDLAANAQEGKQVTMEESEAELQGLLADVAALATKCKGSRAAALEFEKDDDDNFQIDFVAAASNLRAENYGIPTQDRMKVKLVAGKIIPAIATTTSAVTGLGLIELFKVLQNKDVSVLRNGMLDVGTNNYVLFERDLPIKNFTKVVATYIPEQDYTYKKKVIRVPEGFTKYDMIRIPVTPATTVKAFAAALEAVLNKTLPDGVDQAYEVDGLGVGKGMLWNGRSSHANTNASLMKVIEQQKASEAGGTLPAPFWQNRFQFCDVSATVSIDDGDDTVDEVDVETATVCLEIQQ
Test: Leishmania donovani Ubiquitin Activating Enzyme (LdE1)
Format: functional
Design: scale not given: direction of the effect not stated beside the values
Conditions: 30 µM
Entries with a potency or affinity are not part of this list.
Please provide measured Percent Effect for the entries that follow.
State just the number; it will be interpreted in %.

Task item: Request the reported Percent Effect associated with COc1ccc(OCCCN2CCOC(Cn3cccn3)C2)cc1 (stereo not given)
Reply: 3.8

Task item: Can you handle Cc1ncnc2c1CCN(c1cc(C(F)(F)F)ncn1)CC2 next?
Reply: 13.3

Task item: Can you handle COc1ccc(CN(Cc2cncn2C)CC2CCCO2)cc1OC (stereo not given) next?
Reply: 12.2

Task item: Can you handle CC(C)c1nnc2ccc(N3CCC(C(=O)Nc4nccs4)CC3)nn12 next?
Reply: 9.33

Task item: Can you handle CCc1ccc(CN2CCCC(CO)(CCOC)C2)cc1 (stereo not given) next?
Reply: -5.41

Task item: Can you handle CCOc1cc(C(=O)N2CCCC(c3noc(C)n3)C2)ccn1 (stereo not given) next?
Reply: 10.5

Task item: Can you handle CC(C)N1CCCC(CCCc2ccccn2)(C(=O)O)C1 (stereo not given) next?
Reply: 6.76

Task item: Can you handle COCCO[C@@H]1CCN(Cc2csc(C)n2)[C@H]1Cc1ccccc1 next?
Reply: -5.41

Task item: Can you handle COc1ccc(C2=CCN(C(=O)C3CC(=O)N(C4CC4)C3)CC2)cc1 (stereo not given) next?
Reply: -5.26

Task item: Can you handle CN(C)CCNC(=O)c1ccc(OC2CCN(S(C)(=O)=O)CC2)c(Cl)c1 next?
Reply: 18.9

Task item: Can you handle Cc1ccc(CC(=O)N2CC[C@@H]3CN(CCN(C)C)CCO[C@@H]3C2)cc1 next?
Reply: 8.11

Task item: Can you handle CCc1c(C)nc2cc(C3CCN(Cc4ccccc4F)C3)nn2c1O (stereo not given) next?
Reply: -14.9

Task item: Can you handle O=C1CCCc2cc(-c3csc(CCN4CCOC4=O)n3)ccc2N1 next?
Reply: 20.8

Task item: Can you handle CCCNC(=O)N1CCC(Oc2cc(C)ccc2F)(C(=O)O)CC1 next?
Reply: 9.72

Task item: Can you handle Cc1cc(C(=O)NCC2COCc3c(C)nnn3C2)no1 (stereo not given) next?
Reply: 2.6

Task item: Can you handle CCc1cnc(CNc2ccc(C(=O)N3CCCC(C)C3)cc2C)o1 (stereo not given) next?
Reply: -5.2

Task item: Can you handle CCN1CCCC1CN(CCN(C)C)S(=O)(=O)c1cccc(C#N)c1 (stereo not given) next?
Reply: 13.7

Task item: Can you handle COc1cc(CCC(=O)NCC2CCCN2C)ccc1OCC(F)(F)F (stereo not given) next?
Reply: 7.89

Task item: Can you handle CC(=O)N1CCC(C(=O)NCCN2CCC(C)CC2)CC1 next?
Reply: 9.72

Task item: Can you handle Cc1ccccc1CN1CCN(CC(=O)Nc2cccnc2)CC1 next?
Reply: 15.6

Task item: Can you handle Cc1cc(C)c(CNC(=O)NCc2ccc3c(c2)CCC3)c(=O)[nH]1 next?
Reply: 10.5

Task item: Can you handle CCc1nc(CNC(=O)Nc2ccc(C(=O)NC)cc2C)cs1 next?
Reply: 16

Task item: Can you handle CN(C)CC(=O)N1CCC2(CC1)CN(c1ccsc1)C(=O)CO2 next?
Reply: 2.67

Task item: Can you handle CS(=O)(=O)NCC(=O)NC1CCc2nccn2C1 (stereo not given) next?
Reply: 5.33

Task item: Can you handle c1csc(-c2noc(CCCN3CCCC3Cn3cccn3)n2)c1 (stereo not given) next?
Reply: -13.5

Task item: Can you handle O=C1C(NS(=O)(=O)c2cc(F)cc(F)c2)CCN1Cc1ccccc1 (stereo not given) next?
Reply: 12.7

Task item: Can you handle c1ccc2oc(CCCN3CCCC3Cn3cncn3)nc2c1 (stereo not given) next?
Reply: 0

Task item: Can you handle Cc1ccc(O)c(CNC2CCc3nc(C(C)C)nn3C2)n1 (stereo not given) next?
Reply: 13.2

Task item: Can you handle NC(=O)C1(Cc2ccccc2-c2ccccc2)CCCN(CC2CC2)C1 (stereo not given) next?
Reply: 0

Task item: Can you handle CCN(CC)C1CCN(C(=O)NCc2c(C)noc2C)CC1 next?
Reply: 5.48
